For each entry below, report its pKi value.
Molecular target: HCV NS3/4A protease D168A variant (Hepatitis C virus genotype 1a, UniProt P27958, C1185S/D1194A)
Construct: His-tag (cleaved yes); made in house; host or cells: Escherichia coli BL21(DE3), PET28a vector
Sequence (P27958 1027-1208 C1185S/D1194A): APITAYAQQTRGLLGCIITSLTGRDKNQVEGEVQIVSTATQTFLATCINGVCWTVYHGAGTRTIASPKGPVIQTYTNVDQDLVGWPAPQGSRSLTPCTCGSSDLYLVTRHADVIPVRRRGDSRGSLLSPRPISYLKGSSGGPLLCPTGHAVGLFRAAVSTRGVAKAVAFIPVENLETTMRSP
Assay: biochemical
Type: biochemical
pKi is a log-scale quantity: -log10 of the concentration expressed in molar.

Could you share which pKi value was measured for COC(=O)N[C@H](C(=O)N[C@H]1CCCCC/C=C\[C@@H]2C[C@@]2(C(=O)NS(=O)(=O)C2(C)CC2)NC(=O)[C@@H]2C[C@@H](Oc3nc4cc(OC)ccc4nc3C)CN2C1=O)C1CCCC1 [Inhibitor P4P5-3B] ?
7.50

Similarly, COc1ccc2nc(C(F)(F)F)c(O[C@@H]3C[C@H]4C(=O)N[C@]5(C(=O)NS(=O)(=O)C6(C)CC6)C[C@H]5/C=C\CCCCC[C@H](NC(=O)OC5(C)CCCC5)C(=O)N4C3)nc2c1 [NR02-15] ?
7.93

Now give it for COC(=O)NC1(C(=O)N[C@H]2CCCCC/C=C\[C@@H]3C[C@@]3(C(=O)NS(=O)(=O)C3(C)CC3)NC(=O)[C@@H]3C[C@@H](Oc4nc5cc(OC)ccc5nc4C)CN3C2=O)CCCC1 [Inhibitor P4P5-5] too.
6.03

What would you report for COc1ccc2nc(C)c(O[C@@H]3C[C@H]4C(=O)N[C@]5(C(=O)NS(=O)(=O)C6(C)CC6)C[C@H]5/C=C\CCCCC[C@H](NC(=O)[C@@H](NC(C)=O)C5CCCC5)C(=O)N4C3)nc2c1 [Inhibitor P4P5-3A] ?
7.06

Continue with COc1ccc2nc(C(F)(F)F)c(O[C@@H]3C[C@H]4C(=O)N[C@]5(C(=O)NS(=O)(=O)C6(C)CC6)C[C@H]5/C=C\CCCCC[C@H](NC(=O)OC5CC(F)(F)C5)C(=O)N4C3)nc2c1 [NR01-151]
7.36

###

Target: HCV NS3/4A protease D168A variant (Hepatitis C virus genotype 1a, UniProt P27958, C1185S/D1194A)
Construct: His-tag (cleaved yes); made in house; host or cells: Escherichia coli BL21(DE3), PET28a vector
Assay: biochemical
Type: biochemical
Description: The HCV GT1a NS3/4A protease gene described in the Bristol Myers Squibb patent was synthesized by GenScript and cloned into a PET28a expression vector. Cys159 was mutated to a serine residue to prevent disulfide bond formation and facilitate crystallization. The D168A gene was engineered using the site-directed mutagenesis protocol from Stratagene. Protein expression and purification were carried out as previously described. Km constants for GT1 and D168A protease were previously determined. […]
Task for the reader: assign each of the following molecules its reported Ki.
Numeric only. Scale: nM

Consider the molecule COc1ccc2nc(C)c(O[C@@H]3C[C@H]4C(=O)N[C@]5(C(=O)NS(=O)(=O)C6(C)CC6)C[C@H]5/C=C\CCCCC[C@H](NC(=O)[C@@H](NC(C)=O)C(C)(C)C)C(=O)N4C3)nc2c1 [Inhibitor P4P5-2A] and give its measured Ki.
215

Another: COC(=O)N[C@H](C(=O)N[C@H]1CCCCC/C=C\[C@@H]2C[C@@]2(C(=O)NS(=O)(=O)C2(C)CC2)NC(=O)[C@@H]2C[C@@H](Oc3nc4cc(OC)ccc4nc3C)CN2C1=O)C(C)(C)C [Inhibitor P4P5-2B]
201

Next: CCC(CC)OC(=O)N[C@H]1CCCCC/C=C\[C@@H]2C[C@@]2(C(=O)NS(=O)(=O)C2(C)CC2)NC(=O)[C@@H]2C[C@@H](Oc3nc4cc(OC)ccc4nc3C(F)(F)F)CN2C1=O [NR02-52]
20.9

Next up: COc1ccc2nc(C)c(O[C@@H]3C[C@H]4C(=O)N[C@]5(C(=O)NS(=O)(=O)C6(C)CC6)C[C@H]5/C=C\CCCCC[C@H](NC(=O)OC5CCC5)C(=O)N4C3)nc2c1 [NR01-127]
52.4

Quick one: COc1ccc2nc(C)c(O[C@@H]3C[C@H]4C(=O)N[C@]5(C(=O)NS(=O)(=O)C6(C)CC6)C[C@H]5/C=C\CCCCC[C@H](NC(=O)OC(C)(C)C(F)(F)F)C(=O)N4C3)nc2c1 [AJ-71]
39

Please do the same for COc1ccc2nc(C)c(O[C@@H]3C[C@H]4C(=O)N[C@]5(C(=O)NS(=O)(=O)C6(C)CC6)C[C@H]5/C=C\CCCCC[C@H](NC(=O)O[C@@H](C)C5CC5)C(=O)N4C3)nc2c1 [NR02-25] as well.
31.9

Repeat with COc1ccc2nc(C)c(O[C@@H]3C[C@H]4C(=O)N[C@]5(C(=O)NS(=O)(=O)C6(C)CC6)C[C@H]5/C=C\CCCCC[C@H](NC(=O)OC5(C(F)(F)F)CCCC5)C(=O)N4C3)nc2c1 [NR02-60]
8.1

Now this one: COc1ccc2nc(C(F)(F)F)c(O[C@@H]3C[C@H]4C(=O)N[C@]5(C(=O)NS(=O)(=O)C6(C)CC6)C[C@H]5/C=C\CCCCC[C@H](NC(=O)O[C@@H]5CCC[C@H]5F)C(=O)N4C3)nc2c1 [NR02-09]
18.9

Cool, now COC(=O)N[C@H](C(=O)N[C@H]1CCCCC/C=C\[C@@H]2C[C@@]2(C(=O)NS(=O)(=O)C2(C)CC2)NC(=O)[C@@H]2C[C@@H](Oc3nc4cc(OC)ccc4nc3C)CN2C1=O)C(C)C [Inhibitor P4P5-1B]
102
